assayed.target: SIK2 (Homo sapiens, UniProt Q9H0K1)
Sequence (Q9H0K1 whole entry, species assumed): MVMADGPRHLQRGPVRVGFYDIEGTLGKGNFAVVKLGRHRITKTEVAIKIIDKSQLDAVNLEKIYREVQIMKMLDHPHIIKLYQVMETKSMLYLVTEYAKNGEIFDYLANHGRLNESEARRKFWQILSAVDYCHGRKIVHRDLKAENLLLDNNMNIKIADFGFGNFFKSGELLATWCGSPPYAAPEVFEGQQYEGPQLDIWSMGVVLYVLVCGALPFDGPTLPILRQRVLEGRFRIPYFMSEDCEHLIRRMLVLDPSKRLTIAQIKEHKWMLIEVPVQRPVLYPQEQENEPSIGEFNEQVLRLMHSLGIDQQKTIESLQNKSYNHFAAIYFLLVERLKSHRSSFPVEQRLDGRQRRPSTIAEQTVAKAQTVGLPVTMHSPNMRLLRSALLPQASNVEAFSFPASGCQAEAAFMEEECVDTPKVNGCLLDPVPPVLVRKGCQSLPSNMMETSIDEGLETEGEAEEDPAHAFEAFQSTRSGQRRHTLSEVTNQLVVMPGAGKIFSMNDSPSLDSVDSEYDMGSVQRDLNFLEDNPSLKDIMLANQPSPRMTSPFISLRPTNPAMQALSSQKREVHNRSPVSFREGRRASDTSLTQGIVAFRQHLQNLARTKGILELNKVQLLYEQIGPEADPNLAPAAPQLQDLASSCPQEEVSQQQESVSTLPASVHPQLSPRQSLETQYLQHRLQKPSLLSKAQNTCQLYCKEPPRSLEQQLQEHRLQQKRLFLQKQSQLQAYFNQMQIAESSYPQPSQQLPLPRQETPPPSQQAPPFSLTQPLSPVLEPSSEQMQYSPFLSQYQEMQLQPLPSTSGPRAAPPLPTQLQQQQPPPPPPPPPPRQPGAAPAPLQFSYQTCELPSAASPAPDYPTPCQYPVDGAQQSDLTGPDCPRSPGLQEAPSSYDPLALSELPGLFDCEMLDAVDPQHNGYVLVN
assay.protocol: SIK2 Enzymatic Assay High Version 2 (High ATP)
Type: biochemical
pIC50: −log10 of the molar value.
pIC50 values, listed per item

Worked cases, answers included:
Cc1cc(-c2ccn3nc(Nc4ccnc(C)n4)cc3c2)c(O[C@H]2C[C@H]3COC[C@@H](C2)N3C)cn1 [Example 410]: > 9.07
Cc1cc(-c2ccn3nc(Nc4ccc(C(=O)NCC5CCOCC5)cn4)cc3c2)c(O[C@H]2C[C@H]3COC[C@@H](C2)N3)cn1 [Example 373]: > 9.07
Cc1cc(-c2ccn3nc(Nc4ccn(C)n4)cc3c2)c(O[C@H]2C[C@H]3COC[C@@H](C2)N3)cn1 [Example 125]: > 9.07
Cc1cc(-c2ccn3nc(Nc4ccc(C(N)=O)cn4)cc3c2)c(O[C@H]2C[C@H]3COC[C@@H](C2)N3)cn1 [Example 376]: 8.87
N#Cc1cc(-c2ccn3nc(NC(=O)C4CC4)cc3c2)c(OCC23CCC(CC2)C(=O)N3)cn1 [Example 40]: 7.06

Exam item: Quick one: pIC50 for Cc1cc(-c2cn3cc(Nc4cc(C)nc(C)n4)nc3cn2)c(OC2C[C@H]3COC[C@@H](C2)N3C)cn1 (some centres unmarked) [Example 349] ?
Marked response: > 9.07

Exam item: One more molecule: Cc1cc(-c2ccn3nc(Nc4cc(C)nc(C)n4)cc3c2)c(OC[C@@H]2CC[C@@H](O)CO2)cn1 (single isomer, unassigned) [Example 346]
Marked response: 7.78

Exam item: Could you do the same for CNC(=O)c1ccnc(Nc2cc3cc(-c4cc(C)ncc4O[C@H]4C[C@H]5COC[C@@H](C4)N5C)ccn3n2)c1 [Example 409] , please?
Marked response: > 9.07

* * *

assayed.target: SIK2 (Homo sapiens, UniProt Q9H0K1)
assay.protocol: SIK2 Enzymatic Assay High Version 2 (High ATP)
Type: biochemical
property.label: IC50

Exam item: Please give the measured IC50 for this molecule: CCN1[C@@H]2COC[C@H]1C[C@@H](Oc1cnc(C)cc1-c1ccn3nc(NC(=O)C4CC4)cc3c1)C2 [Example 161]
Marked response: < 0.847 nM

Exam item: Then Cc1cc(-c2ccn3nc(Nc4cnccn4)cc3c2)c(O[C@H]2C[C@H]3COC[C@@H](C2)N3C)cn1 [Example 418] ?
Marked response: < 0.847 nM

Exam item: Let us now turn to Cc1cc(-c2ccn3nc(Nc4cccnn4)cc3c2)c(O[C@H]2C[C@H]3COC[C@@H](C2)N3C)cn1 [Example 419]
Marked response: < 0.847 nM

* * *

assayed.target: UniProtKB Q9H0K1
assay.protocol: SIK2 Enzymatic Assay Version 1 (ADP Glo)
Type: biochemical
run.parameters: enzyme 0.6 nM, 160 μM ATP and 140 μM HDAC5tide (each 2× final concentration); 30 minutes pre-incubation, 4 hours; ADPGlo luminescence; read-out: SIK2 ADP Glo IC50 (μM) (Test Example 1)
Strictly below 0.003 µM in IC50: Criterion met. Otherwise: Criterion not met.

CCN1CC(Oc2cnc(C)cc2-c2ccn3nc(NC(=O)C4CC4)cc3c2)C1: Criterion not met
N#Cc1cc(-c2ccn3nc(NC(=O)C4CC4)cc3c2)c(OC2CC3(CNC3)C2)cn1: Criterion not met
CCOc1cnc(C)cc1-c1ccn2nc(NC(=O)C3CC3)cc2c1: Criterion not met

Exam item: # strict comparison: is reported IC50 < 0.003 µM? input = "CC(C)(O)C1CN(c2cnc(C#N)cc2-c2ccn3nc(NC(=O)C4CC4)cc3c2)C1"
Marked response: Criterion not met

Exam item: Now consider "N#Cc1cc(-c2ccn3nc(NC(=O)C4CC4)cc3c2)c(N2CC(CO)C2)cn1" and answer again.
Marked response: Criterion not met

* * *

assayed.target: SIK2 (Homo sapiens)
assay.protocol: SIK2 Enzymatic Assay High Version 2 (High ATP)
Type: biochemical
run.parameters: enzyme 6 nM, 6 mM ATP and 400 μM HDAC5tide (each 2× final concentration); 30 minutes pre-incubation, 2 hours; ADP-Glo Max luminescence; read-out: SIK2 high ATP IC50 (μM) (Test Example 2)
# IC50 listing for each entry below
Numeric only. Scale: µM

As a guide, the following entries are already answered.
CC(C)(C#N)COc1cnc(OC(F)F)cc1-c1ccn2nc(Nc3cc4n(n3)CCNC4)cc2c1: 0.0755
Cc1cc(-c2ccn3nc(NC(=O)C4CC4)cc3c2)c(OC2CCC(=NO)CC2)cn1 (stereo not shown): 0.0502
Cc1cc(-c2ccn3nc(Nc4cc(C)nc(C)n4)cc3c2)c(OC2CCC(C#N)CC2)cn1 (stereo not shown): 0.00378
Cc1nccc(Nc2cc3cc(-c4cc(OC(F)F)ncc4OCC(C)(C)C#N)ccn3n2)n1: 0.00142
Cc1cc(-c2ccn3nc(Nc4cc(C)nc(C)n4)cc3c2)c(OCC2(CO)COC2)cn1: 0.0291

Exam item: Would you mind telling me what IC50 value was observed for "Cc1cc(-c2ccn3nc(Nc4ccc(C(=O)NC5CC5)cn4)cc3c2)c(OCC(C)(C)O)cn1" ?
Marked response: 0.0887

Exam item: Could you do the same for "Cc1cc(-c2ccn3nc(Nc4cc(C)nc(C)n4)cc3c2)c(O[C@@H]2CNC[C@@H]2F)cn1" , please?
Marked response: 0.0025

Exam item: Next up: "CC(=O)NC(C)(C)COc1cnc(C)cc1-c1ccn2nc(Nc3cc(C)nc(C)n3)cc2c1"
Marked response: 0.0058

Exam item: Moving on to the next compound: "COC(=O)c1ccc(Nc2cc3cc(-c4cc(C)ncc4O[C@H]4CC[C@H](O)CC4)ccn3n2)cc1OC"
Marked response: 0.0441

Exam item: Also Cc1cc(-c2ccn3nc(Nc4cc(C)nc(C)n4)cc3c2)c(O[C@H]2CCS(=O)(=O)NC2)cn1 (single isomer, unassigned) , if possible.
Marked response: 0.0829

Exam item: Then what about the compound "Cc1cc(-c2ccn3nc(Nc4cc(C)c(=O)n(CC(C)C)n4)cc3c2)c(OCC(C)(C)O)cn1" ?
Marked response: 0.00608

Exam item: # repeat for "Cc1cc(Nc2cc3cc(-c4cc(OCC#N)ncc4O[C@H]4CC[C@H](O)CC4)ccn3n2)nc(C)n1"
Marked response: 0.00685

Exam item: Entry "COCc1cc(-c2ccn3nc(Nc4cc(C)nc(C)n4)cc3c2)c(OCC(C)(C)C#N)cn1" please
Marked response: 0.319

* * *

assayed.target: UniProt Q9H0K1
assay.protocol: SIK2 Enzymatic Assay Version 1 (ADP Glo)
Assay type: biochemical
run.parameters: enzyme 0.6 nM, 160 μM ATP and 140 μM HDAC5tide (each 2× final concentration); 30 minutes pre-incubation, 4 hours; ADPGlo luminescence; read-out: SIK2 ADP Glo IC50 (μM) (Test Example 1)
Output Y for records whose IC50 is lower than 0.006 µM, N for records at or above 0.006 µM.

Exam item: Is 0.006 µM strictly greater than the compound's reported IC50? compound: N#Cc1cc(-c2ccn3nc(NC(=O)C4CC4)cc3c2)c(OC[C@@H]2C[C@H]3CC[C@@H](C2)N3)cn1 [Example 67]
Marked response: Y

Exam item: What about this compound? Cc1cc(-c2ccn3nc(NC(=O)C4CC4)cc3c2)c(O[C@@H]2CCN(C)C2)cn1 [Example 137]
Marked response: Y

Exam item: Repeat with Cc1cc(-c2ccn3nc(Nc4ccccn4)cc3c2)c(O[C@H]2CC[C@H](O)CC2)cn1 [Example 182]
Marked response: Y

Exam item: Also check CN(C)CCNc1cnc(C#N)cc1-c1ccn2nc(NC(=O)C3CC3)cc2c1 [Example 2]
Marked response: N

Exam item: Input N#Cc1cc(-c2ccn3nc(NC(=O)C4CC4)cc3c2)c(OCc2ccc(C(F)(F)F)nc2)cn1 [Example 61]
Marked response: N

Exam item: # repeat for N#Cc1cc(-c2ccn3nc(NC(=O)C4CC4)cc3c2)c(OC2CC2)cn1 [Example 46]
Marked response: N

Exam item: Entry COCCN1CC[C@H](Oc2cnc(C#N)cc2-c2ccn3nc(NC(=O)C4CC4)cc3c2)C1 [Example 108] please
Marked response: Y

Exam item: Same read-out for CN1CC[C@@H](COc2cnc(C#N)cc2-c2ccn3nc(Nc4ccccc4)cc3c2)C1 [Example 106] ?
Marked response: Y

Exam item: Note, next up: N#Cc1cc(-c2ccn3nc(NC(=O)C4CC4)cc3c2)c(OC2CNC2)cn1 [Example 31]
Marked response: N

Exam item: And what about the compound N#Cc1cc(-c2ccn3nc(NC(=O)C4CC4)cc3c2)c(OCc2ccnc(C(F)(F)F)c2)cn1 [Example 62] ?
Marked response: N

Exam item: Moving on to CN1[C@@H]2CC[C@H]1C[C@@H](Oc1cnc(C#N)cc1-c1ccn3nc(NC(=O)C4CC4)cc3c1)C2 [Example 66]
Marked response: Y

* * *

assayed.target: SIK2 (Homo sapiens)
assay.protocol: SIK2 Enzymatic Assay Version 1 (ADP Glo)
Format: biochemical
run.parameters: enzyme 0.6 nM, 160 μM ATP and 140 μM HDAC5tide (each 2× final concentration); 30 minutes pre-incubation, 4 hours; ADPGlo luminescence; read-out: SIK2 ADP Glo IC50 (μM) (Test Example 1)
Field: class. Source value: IC50. Ranges: bottom range = under 0.002 µM, center range = from 0.002 µM up to 0.01 µM, top range = 0.01 µM and over

N#Cc1cc(-c2ccn3nc(NC(=O)C4CC4)cc3c2)c(OCC2CC2)cn1 [Example 584]: center range
Cc1cc(-c2ccn3nc(Nc4ccn(C)n4)cc3c2)c(O[C@H]2CC[C@@H](O)CC2)cn1 [Example 184]: bottom range
CN1CCC(Oc2cnc(C#N)cc2-c2ccn3nc(NC(=O)C4CC4)cc3c2)CC1 [Example 85]: center range
Cc1cc(-c2ccn3nc(NC(=O)C4CC4)cc3c2)c(OC[C@H]2CC[C@@H](O)CC2)cn1 [Example 148]: center range
N#Cc1cc(-c2ccn3nc(NC(=O)C4CC4)cc3c2)c(N2CC(O)C2)cn1 [Example 70]: top range
COc1c(C)cccc1-c1ccn2nc(NC(=O)C3CC3)cc2c1 [Example 747]: top range

Exam item: Which class holds N#Cc1cc(-c2ccn3nc(NC(=O)C4CC4)cc3c2)c(OCC23CCC(CC2)C(=O)N3)cn1 [Example 40] ?
Marked response: center range

Exam item: Moving on to N#Cc1cc(-c2ccn3nc(NC(=O)C4CC4)cc3c2)c(O[C@@H]2CCN[C@H](C(F)(F)F)C2)cn1 (single isomer, unassigned) [Example 8]
Marked response: bottom range

Exam item: Field entry: CN1C[C@H]2C[C@@H]1C[C@H]2Oc1cnc(C#N)cc1-c1ccn2nc(NC(=O)C3CC3)cc2c1 [Example 13]
Marked response: top range
